Examples of compounds with documented Papp B→A at 120 min, 5 μM follow.
system: MDR1; assay: MDCK-MDR1 permeability assay (BBB penetration potential); format: in vitro ADME; details: dog, MDCK-MDR1, pH 7.4, MDCK-MDR1: Papp B-A
The reply should be a number in ×10⁻⁶ cm/s, with the unit left off.

Solved entries (count: 2):
[
  {
    "Compound": "Cn1c(=O)oc2cc(-c3ccc(O[C@@H]4C[C@H]5CCC[C@H](N5)[C@@H]4F)nn3)c(O)cc21 (single isomer, unassigned) [74-ENT1]",
    "Papp B→A at 120 min, 5 μM (×10⁻⁶ cm/s)": 22.8
  },
  {
    "Compound": "Cc1ccc(-c2ccc(-c3ccc(O[C@H]4C[C@@H]5CCC[C@@H](N5)[C@H]4F)nn3)c(O)c2)nn1 (single isomer, unassigned) [75-ENT2]",
    "Papp B→A at 120 min, 5 μM (×10⁻⁶ cm/s)": 39.7
  }
]

Reported Papp B→A at 120 min, 5 μM ( Cn1cnc(-c2ccc(-c3ccc(O[C@H]4C[C@@H]5CCC[C@@H](N5)[C@H]4F)nn3)c(O)c2)cc1=O (single isomer, unassigned) [138-ENT2] ) = 60.7

Source of measurements: patent US12522597B2
